- Test conditions: in n-hexane, 328.15 K
Metric: solubility (mole fraction)
# print the numeric value only

Query string: Can you look up the measured solubility (mole fraction) of CC[C@H](CC[C@@H](C)[C@H]1CC[C@H]2[C@@H]3CC=C4C[C@@H](O)CC[C@]4(C)[C@H]3CC[C@]12C)C(C)C for me?
Result string: 0.00436

====

- Test conditions: in ethyl acetate, 303.15 K
Metric: solubility (mole fraction)

Query string: Using the record for CC[C@H](CC[C@@H](C)[C@H]1CC[C@H]2[C@@H]3CC=C4C[C@@H](O)CC[C@]4(C)[C@H]3CC[C@]12C)C(C)C , report its solubility (mole fraction).
Result string: 0.0103

====

- Test conditions: in n-hexane, 288.15 K
Metric: solubility (mole fraction)
Just the number, please, no unit after it.

Query string: For CC[C@H](CC[C@@H](C)[C@H]1CC[C@H]2[C@@H]3CC=C4C[C@@H](O)CC[C@]4(C)[C@H]3CC[C@]12C)C(C)C , what is its reported solubility (mole fraction)?
Result string: 0.00123

====

- Test conditions: in ethanol, 323.15 K
Metric: solubility (mole fraction)
I'd appreciate a reply containing only the number, no unit.

Query string: # get_value(readout='solubility (mole fraction)', item= CC[C@H](CC[C@@H](C)[C@H]1CC[C@H]2[C@@H]3CC=C4C[C@@H](O)CC[C@]4(C)[C@H]3CC[C@]12C)C(C)C )
Result string: 0.00632

====

- Test conditions: in n-hexane, 308.15 K
Metric: solubility (mole fraction)
Lab note: jot down the number only; don't add units.

Query string: Data request, read-out solubility (mole fraction), for CC[C@H](CC[C@@H](C)[C@H]1CC[C@H]2[C@@H]3CC=C4C[C@@H](O)CC[C@]4(C)[C@H]3CC[C@]12C)C(C)C
Result string: 0.0024

====

- Test conditions: in ethanol, 298.15 K
Metric: solubility (mole fraction)
// return just the number, without any unit appended

Query string: Endpoint output: solubility (mole fraction) of CC[C@H](CC[C@@H](C)[C@H]1CC[C@H]2[C@@H]3CC=C4C[C@@H](O)CC[C@]4(C)[C@H]3CC[C@]12C)C(C)C . Value?
Result string: 0.00274

====

- Test conditions: in n-hexane, 318.15 K
Metric: solubility (mole fraction)
Answer as a number with no unit attached.

Query string: Endpoint output: solubility (mole fraction) of CC[C@H](CC[C@@H](C)[C@H]1CC[C@H]2[C@@H]3CC=C4C[C@@H](O)CC[C@]4(C)[C@H]3CC[C@]12C)C(C)C . Value?
Result string: 0.00326

====

- Test conditions: in methanol, 283.15 K
Metric: solubility (mole fraction)
// return a plain number; no unit text

Query string: Reported solubility (mole fraction), molecule CC[C@H](CC[C@@H](C)[C@H]1CC[C@H]2[C@@H]3CC=C4C[C@@H](O)CC[C@]4(C)[C@H]3CC[C@]12C)C(C)C : ____
Result string: 0.000167

====

- Test conditions: in acetone, 313.15 K
Metric: solubility (mole fraction)
Enter a number only.

Query string: Entry CC[C@H](CC[C@@H](C)[C@H]1CC[C@H]2[C@@H]3CC=C4C[C@@H](O)CC[C@]4(C)[C@H]3CC[C@]12C)C(C)C : reported solubility (mole fraction) = ?
Result string: 0.00852

====

- Test conditions: in methanol, 288.15 K
Metric: solubility (mole fraction)

Query string: Which solubility (mole fraction) value is on record for CC[C@H](CC[C@@H](C)[C@H]1CC[C@H]2[C@@H]3CC=C4C[C@@H](O)CC[C@]4(C)[C@H]3CC[C@]12C)C(C)C ?
Result string: 0.000205

====

- Test conditions: in n-hexane, 298.15 K
Metric: solubility (mole fraction)
I'd appreciate a reply containing only the number, no unit.

Query string: What does the record list as solubility (mole fraction) for CC[C@H](CC[C@@H](C)[C@H]1CC[C@H]2[C@@H]3CC=C4C[C@@H](O)CC[C@]4(C)[C@H]3CC[C@]12C)C(C)C ?
Result string: 0.00173

====

- Test conditions: in acetone, 328.15 K
Metric: solubility (mole fraction)
// no unit string in output, number only

Query string: If you can, please state the reported solubility (mole fraction) value of CC[C@H](CC[C@@H](C)[C@H]1CC[C@H]2[C@@H]3CC=C4C[C@@H](O)CC[C@]4(C)[C@H]3CC[C@]12C)C(C)C .
Result string: 0.0139

====

- Test conditions: in ethanol, 288.15 K
Metric: solubility (mole fraction)
Write the number on its own, no unit after it.

Query string: Which solubility (mole fraction) reading was recorded for the compound CC[C@H](CC[C@@H](C)[C@H]1CC[C@H]2[C@@H]3CC=C4C[C@@H](O)CC[C@]4(C)[C@H]3CC[C@]12C)C(C)C ?
Result string: 0.0019

====

- Test conditions: in methanol, 328.15 K
Metric: solubility (mole fraction)
Would you mind answering with just the numeric figure?

Query string: Record request: solubility (mole fraction) value, item CC[C@H](CC[C@@H](C)[C@H]1CC[C@H]2[C@@H]3CC=C4C[C@@H](O)CC[C@]4(C)[C@H]3CC[C@]12C)C(C)C
Result string: 0.000855

====

- Test conditions: in acetone, 298.15 K
Metric: solubility (mole fraction)
// no unit, no text: just the number

Query string: Dear colleague, I am looking for the recorded solubility (mole fraction) of the following compound: CC[C@H](CC[C@@H](C)[C@H]1CC[C@H]2[C@@H]3CC=C4C[C@@H](O)CC[C@]4(C)[C@H]3CC[C@]12C)C(C)C
Result string: 0.00525

====

- Test conditions: in ethanol, 318.15 K
Metric: solubility (mole fraction)

Query string: Record request: solubility (mole fraction) value, item CC[C@H](CC[C@@H](C)[C@H]1CC[C@H]2[C@@H]3CC=C4C[C@@H](O)CC[C@]4(C)[C@H]3CC[C@]12C)C(C)C
Result string: 0.0054

====

- Test conditions: in n-hexane, 278.15 K
Metric: solubility (mole fraction)
Please reply with the value in numeric form only.

Query string: I am curious: what solubility (mole fraction) value has been reported for CC[C@H](CC[C@@H](C)[C@H]1CC[C@H]2[C@@H]3CC=C4C[C@@H](O)CC[C@]4(C)[C@H]3CC[C@]12C)C(C)C ?
Result string: 0.000862

====

- Test conditions: in acetone, 278.15 K
Metric: solubility (mole fraction)
Format: numeric value only, no unit, no commentary.

Query string: Recorded solubility (mole fraction) for CC[C@H](CC[C@@H](C)[C@H]1CC[C@H]2[C@@H]3CC=C4C[C@@H](O)CC[C@]4(C)[C@H]3CC[C@]12C)C(C)C , please?
Result string: 0.00274

====

- Test conditions: in acetone, 303.15 K
Metric: solubility (mole fraction)
In your answer, state the number alone without any accompanying words.

Query string: # get_value(readout='solubility (mole fraction)', item= CC[C@H](CC[C@@H](C)[C@H]1CC[C@H]2[C@@H]3CC=C4C[C@@H](O)CC[C@]4(C)[C@H]3CC[C@]12C)C(C)C )
Result string: 0.00616

====

- Test conditions: in ethyl acetate, 323.15 K
Metric: solubility (mole fraction)
Form field (numeric): enter value without unit.

Query string: Recorded solubility (mole fraction) of CC[C@H](CC[C@@H](C)[C@H]1CC[C@H]2[C@@H]3CC=C4C[C@@H](O)CC[C@]4(C)[C@H]3CC[C@]12C)C(C)C , please.
Result string: 0.019

====

- Test conditions: in ethanol, 283.15 K
Metric: solubility (mole fraction)
Could you respond with only the numeric value?

Query string: What measured solubility (mole fraction) goes with CC[C@H](CC[C@@H](C)[C@H]1CC[C@H]2[C@@H]3CC=C4C[C@@H](O)CC[C@]4(C)[C@H]3CC[C@]12C)C(C)C ?
Result string: 0.00158

====

- Test conditions: in ethyl acetate, 278.15 K
Metric: solubility (mole fraction)
# print the numeric value only

Query string: Find the recorded solubility (mole fraction) belonging to CC[C@H](CC[C@@H](C)[C@H]1CC[C@H]2[C@@H]3CC=C4C[C@@H](O)CC[C@]4(C)[C@H]3CC[C@]12C)C(C)C and report it.
Result string: 0.00447

====

- Test conditions: in n-hexane, 333.15 K
Metric: solubility (mole fraction)
API note: the answer field is a bare number with no unit suffix.

Query string: Item under review: CC[C@H](CC[C@@H](C)[C@H]1CC[C@H]2[C@@H]3CC=C4C[C@@H](O)CC[C@]4(C)[C@H]3CC[C@]12C)C(C)C . Reported solubility (mole fraction)?
Result string: 0.005

====

- Test conditions: in ethanol, 278.15 K
Metric: solubility (mole fraction)
Field format: numeric only.

Query string: Entry under review: CC[C@H](CC[C@@H](C)[C@H]1CC[C@H]2[C@@H]3CC=C4C[C@@H](O)CC[C@]4(C)[C@H]3CC[C@]12C)C(C)C . Reported solubility (mole fraction)?
Result string: 0.0013

Values were extracted from BigSolDB 2.1.
